# Tested on: NOMO1
# test_protocol: cell viability relative to DMSO control; higher = less cytotoxic
# condition_parameters: RPMI 5 mM glucose + 10% dialyzed FBS; 48 h; 0.0632 µM
I'd be grateful if you could share measured cell viability for these entries.
Just the number in %, nothing appended.

Entry C[C@@H]1C[C@H]2[C@@H]3\C=C(C)/C4=C/C5=C(C[C@]4(C)[C@H]3[C@@H](O)C[C@]2(C)[C@@]1(O)C(=O)COC(C)=O)C=N[N]5C6=CC=CC=C6 , NOMO1 data, cell viability value: 125

Noted cell viability for O=C(O)[C@H](Cc1c[nH]c2ccccc12)N1C(=O)c2ccccc2C1=O , tested on NOMO1: 98.7

// assay NOMO1, entry CC1(C)[C@@H](O[C@H]2O[C@H](C(=O)O)[C@@H](O)[C@H](O)[C@H]2O[C@@H]2O[C@H](C(=O)O)[C@@H](O)[C@H](O)[C@H]2O)CC[C@]2(C)[C@H]3C(=O)C=C4[C@@H]5C[C@@](C)(C(=O)O)CC[C@]5(C)CC[C@@]4(C)[C@]3(C)CC[C@@H]12 , cell viability value = 154

Entry Cc1ccc(NC(=O)C2(c3ccc4c(c3)OC(F)(F)O4)CC2)nc1-c1cccc(C(=O)O)c1 , NOMO1 data, cell viability value: 102

Readout cell viability for Cc1c[nH]c(/C=C2\C(=O)Nc3ccccc32)c1CCC(=O)O , test system NOMO1, was 109

The reported cell viability value, NOMO1, for Cc1cc(Nc2ncc(Cl)c(Nc3ccccc3[S+](=O)([O-])C(C)C)n2)c(OC(C)C)cc1C1CCNCC1 reads 122

Here C[C@H]1CN(C[C@@H](C)O1)CC(=O)NC2=CC=C3SC4=C(CC3=C2)C=CC=C4\C5=C\C(=O)\C=C(/O5)N6CCOCC6 was tested on NOMO1, and its cell viability came to 104

Field cell viability (system: NOMO1) for entry COC[C@H](NC(=O)c1cnc(C)s1)C(=O)N[C@@H](COC)C(=O)N[C@@H](Cc1ccccc1)C(=O)[C@@]1(C)CO1 = 98.3

So the reported cell viability for C[C@@H](c1ncncc1F)[C@](O)(Cn1cncn1)c1ccc(F)cc1F , on NOMO1, turned out to be 111

Value sought: cell viability, system NOMO1, item CNC(=O)[C@H](Cc1ccccc1)NC(=O)[C@H](CC(C)C)[C@H](CSc1cccs1)C(=O)NO . Result: 87.6

Form: item CC(C)(C)/[N+]([O-])=C/c1ccc([S+](=O)([O-])[O][Na])cc1[S+](=O)([O-])[O][Na] ; test system NOMO1; cell viability: 111

Measured cell viability (NOMO1), entry CC#C[C@]1(O)CC[C@H]2[C@@H]/3CCC/4=C/C(=O)CCC4=C3[C@H](C[C@]12C)C5=CC=C(C=C5)N(C)C : 110

cell viability on NOMO1 for FC(F)(F)c1ccc(Nc2nc3cc(Oc4ccnc(-c5ncc(C(F)(F)F)[nH]5)c4)ccc3[nH]2)cc1 is 136

Tested system NOMO1; cell viability recorded for CCCCN(CCCC)CCC(O)c1cc2c(Cl)cc(Cl)cc2c2cc(C(F)(F)F)ccc12 (stereo not given) was 121

Kindly note: NOMO1, Cc1ccc(C(C)(O)c2nc3ccccc3s2)c(C)c1 (stereo not given) , cell viability value reported: 113

====

# System: P12-Ichikawa
# test_protocol: AUC of viability dose-response curve (% viability x log10 dose units); higher = less sensitive
# condition_parameters: RPMI 5 mM glucose + 10% dialyzed FBS; 48 h
endpoint_label: AUC of viability dose-response curve

The molecule identified as COc1nc(-c2ccc3c(c2)OCO3)n(-c2ccc(NC(=O)CSc3ccccc3)cc2)n1 registered its AUC of viability dose-response curve at 428

Record summary for CNC(=O)c1ccc(Nc2ncc(C(F)(F)F)c(NCc3nccnc3N(C)[S+](C)(=O)[O-])n2)cc1 : reported AUC of viability dose-response curve = 438

response.value for C=C(C)[C@@H]1CC[C@]2(C)CC[C@]3(C)[C@H](CC[C@@H]4[C@@]5(C)CC[C@H](O)C(C)(C)[C@@H]5CC[C@]43C)[C@@H]12 (field: AUC of viability dose-response curve) = 459

Note to self: AUC of viability dose-response curve recorded for C[C@H]([C@H](O)CCC(C)(C)O)[C@H]1CC[C@@]2(O)C/3=C/C(=O)[C@@H]4C[C@@H](O)[C@@H](O)C[C@]4(C)[C@H]3CC[C@]12C was 470

====

# Test system: NOMO1
# test_protocol: cell viability relative to DMSO control; higher = less cytotoxic
# condition_parameters: RPMI 5 mM glucose + 10% dialyzed FBS; 48 h; 0.00234 µM
endpoint_label: cell viability
Number first, unit second.

With NOMO1 as the test system, C1Cc2[nH]nc(-c3nn[nH]n3)c2C1 showed cell viability of 124%

Record CN1CCCN(C(=O)c2cccc(-c3ccc(/C=C4/C(=O)Nc5ccc(Cl)cc54)o3)c2)CC1 ; system NOMO1; cell viability = 112%

// compound O=C1NC(=O)[C@@H](c2cn3c4c(cccc24)CCC3)[C@@H]1c1c[nH]c2ccccc12 , assay NOMO1, cell viability value: 91.3%

So the reported cell viability for Nc1nc(-c2nn(Cc3ccccc3F)c3ncccc23)nc(N)c1N1CCOCC1 , on NOMO1, turned out to be 107%

NOMO1 assay, compound CCC[C@@H]1C[C@@H](C(=O)N[C@@H]([C@H]2O[C@H](SC)[C@H](O)[C@@H](O)[C@H]2O)[C@@H](C)O)N(C)C1.Cl , recorded cell viability = 112%

Log: NOMO1, compound Clc1cccc(-c2nnnn2Cc2cccnc2)c1Cl , cell viability = 83.6%

Item CN1C(=O)\C(=C/C(=C1/NC2=C(F)C=C(I)C=C2)C(=O)NOCCO)C was tested on NOMO1; the reported cell viability is 81.7%

Param item: Nc1ccccc1NC(=O)c1ccc(CNc2nccc(-c3cccnc3)n2)cc1 ; param system: NOMO1; output cell viability: 117%

Considering C[C@@H]1C[C@H]2[C@@H]3\C=C(C)/C4=C/C5=C(C[C@]4(C)[C@H]3[C@@H](O)C[C@]2(C)[C@@]1(O)C(=O)COC(C)=O)C=N[N]5C6=CC=CC=C6 , its cell viability with NOMO1 was recorded as 121%

Readout cell viability for C=C(C)[C@@H]1CC[C@]2(C)CC[C@]3(C)[C@H](CC[C@@H]4[C@@]5(C)CC[C@H](O)C(C)(C)[C@@H]5CC[C@]43C)[C@@H]12 , test system NOMO1, was 106%

For the compound COc1cc(N2CCC(C(N)=O)CC2)ccc1Nc1nc(N)c(Cl)c(Nc2ccccc2[S+](=O)([O-])C(C)C)n1 , the measured cell viability on NOMO1 was 94.2%

Bench note, NOMO1: Cc1ccc(C(C)(O)c2nc3ccccc3s2)c(C)c1 (configuration not stated) , cell viability reads 107%

// assay NOMO1, entry NC1CCC(N[C@@H]2C[C@H]2c2ccccc2)CC1 (some centres not stated) , cell viability value = 97%

Entry CO[C@H]1C[C@@H]2CC[C@@H](C)[C@@](O)(O2)C(=O)C(=O)N2CCCC[C@H]2C(=O)O[C@H]([C@H](C)C[C@@H]2CC[C@@H](OP(C)(C)=O)[C@H](OC)C2)CC(=O)[C@H](C)/C=C(\C)[C@@H](O)[C@@H](OC)C(=O)[C@H](C)C[C@H](C)/C=C/C=C/C=C/1C under NOMO1 had cell viability of 113%

The compound O=C(O)[C@H](Cc1c[nH]c2ccccc12)N1C(=O)c2ccccc2C1=O on NOMO1: cell viability was 99.1%

COc1cc2nccc(Oc3ccc(NC(=O)C4(C(=O)Nc5ccc(F)cc5)CC4)cc3)c2cc1OC tested on NOMO1 gave cell viability: 99.2%

Lab entry: NOMO1 assay, compound Clc1ccc(C2(c3ccc(-c4cn[nH]c4)cc3)CCNCC2)cc1 , cell viability = 99.2%

====

# Tested on: P12-Ichikawa
# test_protocol: AUC of viability dose-response curve (% viability x log10 dose units); higher = less sensitive
# condition_parameters: HPLM + 10% dialyzed FBS; 48 h
Assignment: determine reported AUC of viability dose-response curve for the given compounds.

Entry under test: CCC[C@@H]1C[C@@H](C(=O)N[C@@H]([C@H]2O[C@H](SC)[C@H](O)[C@@H](O)[C@H]2O)[C@@H](C)O)N(C)C1.Cl . Its AUC of viability dose-response curve was 448

Item: C[C@H](NC(=O)C(=O)Nc1ccccc1C(C)(C)C)C(=O)N[C@@H](CC(=O)O)C(=O)COc1c(F)c(F)cc(F)c1F | AUC of viability dose-response curve: 440

AUC of viability dose-response curve measured on C[C@@H](c1ncncc1F)[C@](O)(Cn1cncn1)c1ccc(F)cc1F = 464

Reported AUC of viability dose-response curve for CC[C@H]1OC(=O)[C@H](C)[C@@H](O[C@H]2C[C@@](C)(OC)[C@@H](O)[C@H](C)O2)[C@H](C)[C@@H](O[C@@H]2O[C@@H](C)C[C@H](N(C)C)[C@H]2O)[C@](C)(O)C[C@@H](C)C(=O)[C@H](C)[C@@H](O)[C@]1(C)O was 402

// AUC of viability dose-response curve value for CC(C)OC(=O)CCC/C=C\C[C@@H]1[C@@H](/C=C/[C@@H](O)COc2cccc(C(F)(F)F)c2)[C@H](O)C[C@@H]1O : 459

Lookup result for CNC(=O)[C@H](Cc1ccccc1)NC(=O)[C@H](CC(C)C)[C@H](CSc1cccs1)C(=O)NO ; measured AUC of viability dose-response curve: 409

Value of measured AUC of viability dose-response curve for the entry CC(=O)N1CCN(c2ccc(OCc3nn(C)c(C)c3-c3cccc4c(CCCOc5cc(C)c(Cl)c(C)c5)c(C(=O)O)n(Cc5cccnc5)c34)cc2)CC1 : 461

According to the records, this compound O=C(O)c1ccc2cc(-c3ccc(O)c(C45CC6CC(CC(C6)C4)C5)c3)ccc2c1 displays AUC of viability dose-response curve of 299

The compound listed as CN1C(=O)C(Cc2c[nH]c3ccccc23)NC1=S (stereo not given) shows AUC of viability dose-response curve equal to 458

Item: CO[C@H]1C[C@@H]2CC[C@@H](C)[C@@](O)(O2)C(=O)C(=O)N2CCCC[C@H]2C(=O)O[C@H]([C@H](C)C[C@@H]2CC[C@@H](OP(C)(C)=O)[C@H](OC)C2)CC(=O)[C@H](C)/C=C(\C)[C@@H](O)[C@@H](OC)C(=O)[C@H](C)C[C@H](C)/C=C/C=C/C=C/1C | AUC of viability dose-response curve: 453

// field: AUC of viability dose-response curve; key: O=[N+]([O-])c1cn2c(n1)OC[C@@H](OCc1ccc(OC(F)(F)F)cc1)C2 ; value = 450

The reported AUC of viability dose-response curve of the compound C\C1=N\N=C(\C2=CC=C(N)C=C2)C3=CC4=C(OCO4)C=C3C1 was 469

Quick note, AUC of viability dose-response curve for CN1[C@@H]2CCC[C@H]1C[C@@H](NC(=O)c1nn(C)c3ccccc13)C2.Cl landed at 463

AUC of viability dose-response curve measured on Nc1ccccc1NC(=O)c1ccc(CNc2nccc(-c3cccnc3)n2)cc1 = 355

Entry CC/1=C/N([C@@H]2C[C@@H](O)[C@H](CO)O2)C(=O)NC1=O — recorded AUC of viability dose-response curve = 388
